These measurements were taken from paper PMC5577615.

System: Escherichia coli ATCC 25922
procedure text: MIC, broth microdilution
Type: cell-based
details: ATCC 25922, 24 h
Method: The following strains have been used in this study: Escherichia coli ATCC 25922, Staphylococcus aureus ATCC […], Vibrio anguillarum ATCC 43305, Pseudomonas aeruginosa ATCC 27853, Acinetobacter baumannii ATCC 19606, Bacillus subtilis ATCC 6051. […] The minimum inhibiting concentration (MIC) of each myticalin synthetic peptide was calculated using the broth microdilution method. […]
Where no end group is shown, it is not given here.

>  <substance>
WPRFPKPRKPTYPGPTYPGPTWPRPTWRRSATIDTEH [Myticalin D5]

>  <censoring operator>
>

>  <Minimal inhibitory concentration (MIC) [µM]>
32

$$$$
>  <substance>
RRRRRYRYWRRGLTIQGRPKSLPLNTGD [Myticalin C9]

>  <censoring operator>
=

>  <Minimal inhibitory concentration (MIC) [µM]>
4

$$$$
>  <substance>
WGRRWRIRIPRLPRPWPPRPKWPRSATINTDQ [Myticalin D2]

>  <censoring operator>
=

>  <Minimal inhibitory concentration (MIC) [µM]>
4

$$$$
>  <substance>
RRRRRFRRVIRRIRLPKYLTINTE [Myticalin C6]

>  <censoring operator>
=

>  <Minimal inhibitory concentration (MIC) [µM]>
4

$$$$
